# Test system: Plasmodium berghei
# ASSAY SUMMARY: Luciferase/luciferin-expressing antifolate-resistant parasites were used to infect a culture of HepG2 cells that were pre-incubated with compounds. Infected hepatocytes emit light due to the luciferase reaction. Assay results are presented as the percent inhibition of light emission compared to control. […]
# Assay type: functional
# SETTINGS: sporozoite, read-out: LUCIFERASE INFECTION ASSAY - IC50
pIC50: −log10 of the molar value.
MEASUREMENT LABEL: pIC50

Recorded results for 8 compounds are shown here.
COMPOUND	pIC50
Cc1ccc(-n2c(=O)c3ccccc3n3c(SCc4nnnn4C4CC4)nnc23)c(C)c1	< 5.00
CC(C)(C)c1ccc(C(=O)Nc2cc(Cl)cc(Cl)c2)cc1	< 4.99
Cc1nc2ccccn2c1C(=O)N/N=C/c1c(-c2ccccc2)n(-c2ccccc2)c2ccccc12	< 5.00
Cc1cc2ccccc2n1CC(=O)NCc1ccc(NC(=O)c2ccco2)cc1	5.24
CCCn1c(CCC(=O)OCC(=O)c2ccc(NC(=O)CC(C)C)cc2)nc2cc(S(=O)(=O)N3CCCC3)ccc21	< 5.00
COc1cccc(N2C(=O)CC(n3nc(Nc4cccc(C)c4)sc3=S)C2=O)c1 (stereo unspecified)	< 5.00
COc1ccc(-c2noc(CCCCCNC(=O)c3ccc(-n4cnnn4)cc3)n2)cc1	< 5.00
COc1ccc(NC(=O)c2cccc(C3(CNc4ccccc4)CC3)c2)cn1	< 5.00

Notebook: pull reported pIC50 for Plasmodium berghei, entry Cc1ccc(-c2nc(C(=O)NCCCN(C)C)cc3c2[nH]c2ccccc23)cc1 < 5.07

Notebook: pull reported pIC50 for Plasmodium berghei, entry Cc1cccc(C(=O)NCCC(=O)NCc2ccccc2F)c1 < 5.00

Notebook: pull reported pIC50 for Plasmodium berghei, entry Cc1c(Cl)c(CN2C(=O)C(=O)N(Cc3cccs3)C2=O)nc2ccccc12 < 5.00

Notebook: pull reported pIC50 for Plasmodium berghei, entry CNS(=O)(=O)Cc1ccccc1CNCc1ccc(OC(F)F)cc1 < 5.00

Notebook: pull reported pIC50 for Plasmodium berghei, entry Cn1c(Nc2cccc(C(F)(F)F)c2)nc2cnc(-c3ccoc3)cc21 < 5.00

Notebook: pull reported pIC50 for Plasmodium berghei, entry CCCn1c(N)c(N2CCCCC2)c(=O)n(Cc2nc(N)nc(Nc3ccccc3)n2)c1=O 5.66

Notebook: pull reported pIC50 for Plasmodium berghei, entry CC(C)(C)c1cccc(Nc2ncc(C(=O)c3ccccc3)[nH]2)c1 5.06

Notebook: pull reported pIC50 for Plasmodium berghei, entry Cc1ccc(-n2c(C)cc(C(=O)CSc3n[nH]c(=O)n3C3CC3)c2C)cc1C < 5.00

###

# System: Plasmodium berghei
# ASSAY SUMMARY: Luciferase/luciferin-expressing antifolate-resistant parasites were used to infect a culture of HepG2 cells that were pre-incubated with compounds. Infected hepatocytes emit light due to the luciferase reaction. Assay results are presented as the percent inhibition of light emission compared to control. […]
# Assay type: functional
# SETTINGS: sporozoite, HEPG2TOX_HILL_SLOPE 3.73, HEPG2TOX_R_SQUARED 0.889, PBLUC_HILL_SLOPE 8.27, PBLUC_R_SQUARED 0.455, read-out: LUCIFERASE INFECTION ASSAY - IC50
MEASUREMENT LABEL: pIC50
# log scale: pIC50 equals minus log10 of the concentration in mol/L

Notebook: pull reported pIC50 for Plasmodium berghei, entry O=S(=O)(Nc1cc(-c2ccc(Cl)cc2)nn1-c1ccc(I)cc1)c1cccc(F)c1 5.66

###

# Test system: Plasmodium berghei
# ASSAY SUMMARY: Luciferase/luciferin-expressing antifolate-resistant parasites were used to infect a culture of HepG2 cells that were pre-incubated with compounds. Infected hepatocytes emit light due to the luciferase reaction. Assay results are presented as the percent inhibition of light emission compared to control. […]
# Format: functional
# SETTINGS: sporozoite, FFLUC_HILL_SLOPE 17.8, FFLUC_R_SQUARED 0.255, PBLUC_HILL_SLOPE 12.5, PBLUC_R_SQUARED 0.443, read-out: LUCIFERASE INFECTION ASSAY - IC50
MEASUREMENT LABEL: IC50 (µM)
Kindly answer with a numeric value in µM, unit omitted.

Notebook: pull reported IC50 for Plasmodium berghei, entry COc1cc(OC)cc(-c2cnc3cnc(-c4cccc(N)c4)cn23)c1 9.41

###

# Tested on: Plasmodium berghei
# ASSAY SUMMARY: Luciferase/luciferin-expressing antifolate-resistant parasites were used to infect a culture of HepG2 cells that were pre-incubated with compounds. Infected hepatocytes emit light due to the luciferase reaction. Assay results are presented as the percent inhibition of light emission compared to control. […]
# Type: functional
# SETTINGS: sporozoite, HEPG2TOX_HILL_SLOPE 1.59, HEPG2TOX_R_SQUARED 0.747, PBLUC_HILL_SLOPE 12.8, PBLUC_R_SQUARED 0.235, read-out: LUCIFERASE INFECTION ASSAY - IC50
MEASUREMENT LABEL: pIC50
# log scale: pIC50 equals minus log10 of the concentration in mol/L

Fill in: pIC50 of Cc1ccc(S(=O)(=O)N2CCC[C@H]2C(=O)Nc2ccc(-c3nc4ccccc4[nH]3)cc2)cc1 is ___ 5.07

###

# Tested on: Plasmodium berghei
# ASSAY SUMMARY: Luciferase/luciferin-expressing antifolate-resistant parasites were used to infect a culture of HepG2 cells that were pre-incubated with compounds. Infected hepatocytes emit light due to the luciferase reaction. Assay results are presented as the percent inhibition of light emission compared to control. […]
# Format: functional
# SETTINGS: sporozoite, HEPG2TOX_HILL_SLOPE 15.9, HEPG2TOX_R_SQUARED 0.771, PBLUC_HILL_SLOPE 3.2, PBLUC_R_SQUARED 0.661, read-out: LUCIFERASE INFECTION ASSAY - IC50
MEASUREMENT LABEL: IC50 (µM)
Kindly answer with a numeric value in µM, unit omitted.

Fill in: IC50 of Cn1ccnc1SCc1n[nH]c(=O)c2ccccc12 is ___ 4.5

###

# Tested on: Plasmodium berghei
# ASSAY SUMMARY: Luciferase/luciferin-expressing antifolate-resistant parasites were used to infect a culture of HepG2 cells that were pre-incubated with compounds. Infected hepatocytes emit light due to the luciferase reaction. Assay results are presented as the percent inhibition of light emission compared to control. […]
# Type: functional
# SETTINGS: sporozoite, HEPG2TOX_HILL_SLOPE 19.2, HEPG2TOX_R_SQUARED 0.924, PBLUC_HILL_SLOPE 9.11, PBLUC_R_SQUARED 0.436, read-out: LUCIFERASE INFECTION ASSAY - IC50
MEASUREMENT LABEL: IC50
Answer with the figure and its unit, nothing else.

Fill in: IC50 of Fc1cccc(NC(=S)NC2CCCCCCCCCCC2)c1 is ___ 3.53 µM

###

# Tested on: Plasmodium berghei
# ASSAY SUMMARY: Luciferase/luciferin-expressing antifolate-resistant parasites were used to infect a culture of HepG2 cells that were pre-incubated with compounds. Infected hepatocytes emit light due to the luciferase reaction. Assay results are presented as the percent inhibition of light emission compared to control. […]
# Assay type: functional
# SETTINGS: sporozoite, HEPG2TOX_HILL_SLOPE 4.15, HEPG2TOX_R_SQUARED 0.834, PBLUC_HILL_SLOPE 17, PBLUC_R_SQUARED 0.564, read-out: LUCIFERASE INFECTION ASSAY - IC50
MEASUREMENT LABEL: pIC50
# log scale: pIC50 equals minus log10 of the concentration in mol/L

Fill in: pIC50 of COc1ccc(S(=O)(=O)Nc2ccccc2C(=O)NNC(=O)c2ccccc2O)cc1 is ___ 5.39

###

# Tested on: Plasmodium berghei
# ASSAY SUMMARY: Luciferase/luciferin-expressing antifolate-resistant parasites were used to infect a culture of HepG2 cells that were pre-incubated with compounds. Infected hepatocytes emit light due to the luciferase reaction. Assay results are presented as the percent inhibition of light emission compared to control. […]
# Assay type: functional
# SETTINGS: sporozoite, FFLUC_HILL_SLOPE 4.79, FFLUC_R_SQUARED 0.608, HEPG2TOX_HILL_SLOPE 0.722, HEPG2TOX_R_SQUARED 0.602, PBLUC_HILL_SLOPE 10.9, PBLUC_R_SQUARED 0.683, read-out: LUCIFERASE INFECTION ASSAY - IC50
MEASUREMENT LABEL: IC50 (µM)
Kindly answer with a numeric value in µM, unit omitted.

Fill in: IC50 of CC(C)(C)c1ccc(C2NCC(c3ccc(Cl)cc3Cl)c3c2[nH]c2ccccc32)cc1 (stereo unspecified) is ___ 3.34

###

# System: Plasmodium berghei
# ASSAY SUMMARY: Luciferase/luciferin-expressing antifolate-resistant parasites were used to infect a culture of HepG2 cells that were pre-incubated with compounds. Infected hepatocytes emit light due to the luciferase reaction. Assay results are presented as the percent inhibition of light emission compared to control. […]
# Assay type: functional
# SETTINGS: sporozoite, HEPG2TOX_HILL_SLOPE 1.87, HEPG2TOX_R_SQUARED 0.954, PBLUC_HILL_SLOPE 8.9, PBLUC_R_SQUARED 0.583, read-out: LUCIFERASE INFECTION ASSAY - IC50
MEASUREMENT LABEL: IC50 (nM)
Kindly answer with a numeric value in nM, unit omitted.

Fill in: IC50 of Cc1ccc(S(=O)(=O)Nc2cccc3ncccc23)s1 is ___ 2910
